- Test system: Staphylococcus aureus
- PROTOCOL_SUMMARY: Antibacterial activity against methicillin-resistant Staphylococcus aureus ATCC 700699 after 24 hrs
- Type: functional
- SETUP_CONDITIONS: ATCC 700699, 24 h
Positions of bridges follow the written chain, without caps; N, C: chain ends. Non-standard residues stand in square brackets, D forms with d. Residues, ends and D or L forms follow the SMILES beside them. dNMeF = CN[C@H](Cc1ccccc1)C(=O)O
PROPERTY: MIC

compound="CC[C@@H](C)[C@@H](NC(=O)[C@@H](CCCNC(=N)N)NC(=O)[C@H](CCCNC(=N)N)NC(=O)[C@@H](NC(=O)[C@@H](Cc1ccccc1)NC)[C@@H](C)CC)C(=O)N[C@H](C(=O)N[C@@H](CO)C(=O)N[C@H]1C(=O)N[C@@H](C)C(=O)N[C@@H](CC(C)C)C(=O)N[C@@H]([C@@H](C)CC)C(=O)O[C@H]1C)[C@@H](C)CC (H-[dNMeF]IR[dR][dI]IS[dT]ALI; ester 8-C)" subject_of_test="Staphylococcus aureus" test_value="0.5 µg/mL"

[in] Determine its reported MIC: CC[C@@H](C)[C@@H](NC(=O)[C@@H](CCCNC(=N)N)NC(=O)[C@H](CCCNC(=N)N)NC(=O)[C@@H](NC(=O)[C@@H](Cc1ccccc1)NC)[C@@H](C)CC)C(=O)N[C@H](C(=O)N[C@@H](CO)C(=O)N[C@H]1C(=O)N[C@@H](CCCNC(=N)N)C(=O)N[C@@H](CC(C)C)C(=O)N[C@@H]([C@@H](C)CC)C(=O)O[C@H]1C)[C@@H](C)CC (H-[dNMeF]IR[dR][dI]IS[dT]RLI; ester 8-C)
[out] 2 µg/mL

[in] Determine its reported MIC: "CC[C@@H](C)[C@@H](NC(=O)[C@@H](CCC(N)=O)NC(=O)[C@H](CO)NC(=O)[C@@H](NC(=O)[C@@H](Cc1ccccc1)NC)[C@@H](C)CC)C(=O)N[C@H](C(=O)N[C@@H](CO)C(=O)N[C@H]1C(=O)N[C@@H](C)C(=O)N[C@@H](CC(C)C)C(=O)N[C@@H]([C@@H](C)CC)C(=O)O[C@H]1C)[C@@H](C)CC"
[out] 0.25 µg/mL

[in] Determine its reported MIC: "CC[C@@H](C)[C@@H](NC(=O)[C@@H](CCC(N)=O)NC(=O)[C@H](CO)NC(=O)[C@@H](NC(=O)[C@@H](Cc1ccccc1)NC)[C@@H](C)CC)C(=O)N[C@H](C(=O)N[C@@H](CO)C(=O)N[C@H]1C(=O)N[C@@H](CCCNC(=N)N)C(=O)N[C@@H]([C@@H](C)CC)C(=O)N[C@@H]([C@@H](C)CC)C(=O)O[C@H]1C)[C@@H](C)CC"
[out] 1 µg/mL

[in] Determine its reported MIC: "CC[C@@H](C)[C@@H](NC(=O)[C@@H](CCCNC(=N)N)NC(=O)[C@H](CO)NC(=O)[C@@H](NC(=O)[C@@H](Cc1ccccc1)NC)[C@@H](C)CC)C(=O)N[C@H](C(=O)N[C@@H](CO)C(=O)N[C@H]1C(=O)N[C@@H](C)C(=O)N[C@@H]([C@@H](C)CC)C(=O)N[C@@H]([C@@H](C)CC)C(=O)O[C@H]1C)[C@@H](C)CC"
[out] 0.25 µg/mL

[in] Determine its reported MIC: CC[C@@H](C)[C@@H](NC(=O)[C@@H](CCC(N)=O)NC(=O)[C@H](CCCNC(=N)N)NC(=O)[C@@H](NC(=O)[C@@H](Cc1ccccc1)NC)[C@@H](C)CC)C(=O)N[C@H](C(=O)N[C@@H](CO)C(=O)N[C@H]1C(=O)N[C@@H](CCCNC(=N)N)C(=O)N[C@@H](CC(C)C)C(=O)N[C@@H]([C@@H](C)CC)C(=O)O[C@H]1C)[C@@H](C)CC (H-[dNMeF]IR[dQ][dI]IS[dT]RLI; ester 8-C)
[out] 1 µg/mL
